Hi there, I'd appreciate the recorded Potency for every entry that follows.
- Experimental System: D(2) dopamine receptor (Homo sapiens) (UniProt P14416)
- Sequence (P14416 whole entry, looked up): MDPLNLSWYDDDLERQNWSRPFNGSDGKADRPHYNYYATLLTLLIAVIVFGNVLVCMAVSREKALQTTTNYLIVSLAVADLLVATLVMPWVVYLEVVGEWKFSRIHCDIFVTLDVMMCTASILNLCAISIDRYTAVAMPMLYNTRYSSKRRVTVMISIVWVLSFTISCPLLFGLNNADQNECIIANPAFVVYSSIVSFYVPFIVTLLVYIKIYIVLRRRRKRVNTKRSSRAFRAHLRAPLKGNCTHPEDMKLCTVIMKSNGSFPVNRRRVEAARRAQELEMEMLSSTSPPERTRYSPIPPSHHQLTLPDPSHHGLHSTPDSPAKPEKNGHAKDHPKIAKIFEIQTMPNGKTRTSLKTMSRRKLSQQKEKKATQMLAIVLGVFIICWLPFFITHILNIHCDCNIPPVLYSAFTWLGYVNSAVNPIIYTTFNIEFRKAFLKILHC
- Experimental Details: HTS Assay for Allosteric Antagonists of the Human D2 Dopamine Receptor: SAR in D2 Beta Arrestin Assay
- Cond: DiscoveRx PathHunter D2 beta-arrestin recruitment, luminescence
Records with an inconclusive call do not appear. Active and inactive are the calls of the source. Calls come from the whole dose curve; as a rule, active = well fitted inhibition curve with a large enough effect; inconclusive = small, poorly fitted or top-dose-only effect, or another doubt; inactive = flat fitted curve, though single readings scatter.

Short answer for CCN1C(=O)c2ccccc2[S@](=O)c2ccc(C(=O)NCc3ccc(C#N)cc3)cc21 : Potency was 0.257 µM (active)

The compound identified as CCN1C(=O)c2ccccc2[S@](=O)c2ccc(C(=O)N[C@H](C)c3ccc(Br)cc3)cc21 registered its Potency at 1.29 µM (active)

The compound CN1C(=O)c2ccccc2[S@](=O)c2ccc(C(=O)NCc3ccc(Br)cc3)cc21 showed Potency equal to 1.02 µM (active)

compound CN1C(=O)c2ccccc2[S@](=O)c2ccc(C(=O)NCCN3CCCC3)cc21 , Potency observed: 0.363 µM (active)

# compound CCN1C(=O)c2ccccc2[S@](=O)c2ccc(C(=O)NCc3ccc(OC)cc3)cc21 ; its Potency = 1.15 µM (active)
